# test.system: UniProtKB P21554
# Sequence (P21554 whole entry): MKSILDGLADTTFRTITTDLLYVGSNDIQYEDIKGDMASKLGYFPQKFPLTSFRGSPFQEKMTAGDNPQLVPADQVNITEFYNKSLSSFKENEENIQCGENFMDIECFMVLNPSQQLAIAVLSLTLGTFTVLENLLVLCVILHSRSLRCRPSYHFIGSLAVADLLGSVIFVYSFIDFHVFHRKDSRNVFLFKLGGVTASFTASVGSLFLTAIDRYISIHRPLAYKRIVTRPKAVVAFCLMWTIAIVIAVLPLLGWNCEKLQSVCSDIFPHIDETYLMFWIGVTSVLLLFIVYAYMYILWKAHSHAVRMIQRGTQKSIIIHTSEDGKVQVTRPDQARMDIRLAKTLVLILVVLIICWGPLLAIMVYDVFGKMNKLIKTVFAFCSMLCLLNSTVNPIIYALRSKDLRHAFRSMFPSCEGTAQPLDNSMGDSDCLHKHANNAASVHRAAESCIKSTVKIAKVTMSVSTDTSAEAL
measurement.name: AC50

CC(C)C[C@H](CN)CC(=O)O :: > 30 µM

Q: Please look at CCCN(CCC)CCc1cccc2c1CC(=O)N2 and tell me its recorded AC50 on UniProtKB P21554.
A: > 10 µM

Q: Please look at N#C[C@@H]1CCCN1C(=O)CNC12CC3CC(CC(O)(C3)C1)C2 and tell me its recorded AC50 on UniProtKB P21554.
A: > 30 µM

Q: Please look at CC(=O)O[C@H]1C[C@@H]2CC[C@@H]3[C@H](CC[C@@]4(C)[C@H]3C[C@H]([N+]3(C)CCCCC3)[C@@H]4OC(C)=O)[C@@]2(C)C[C@@H]1[N+]1(C)CCCCC1 and tell me its recorded AC50 on UniProtKB P21554.
A: > 10 µM

Q: Please look at CN(C)c1cc(NC(=O)CNC(C)(C)C)c(O)c2c1C[C@H]1C[C@H]3[C@H](N(C)C)C(O)=C(C(N)=O)C(=O)[C@@]3(O)C(O)=C1C2=O and tell me its recorded AC50 on UniProtKB P21554.
A: > 30 µM

Q: Please look at C#C[C@]1(O)CC[C@H]2[C@@H]3CCc4cc(OC)ccc4[C@H]3CC[C@@]21C and tell me its recorded AC50 on UniProtKB P21554.
A: > 10 µM
